# measurement_protocol: Thermodynamic solubility of the compound in PBS at pH 7.4
# Assay type: physicochemical
# applied_conditions: read-out: Therm_solubility
metric_name: solubility thermodynamic (µM)

Reference set, count: 2
# chemical_structure, solubility thermodynamic, µM
data = [
    ("O=C(NCc1ccccc1)[C@@H](c1ccccc1)N1CC2CCC(C1)N2C(=O)c1cc(F)ccc1Cl", 35),
    ("CN(Cc1ccccc1)C(=O)[C@@H](c1ccccc1)N1CCN(C(=O)c2cc(F)cc(F)c2)CC1", 220),
]

A. N#Cc1cc(F)cc(C(=O)N2CCN([C@@H](C(=O)NCC(F)(F)C3CC3)c3ccccc3)CC2)c1
B. O=C(NCc1ccc(C(F)(F)F)nc1)[C@@H](c1ccccc1)N1CCN(C(=O)c2cc(F)cc(F)c2)CC1
## Input Consider entries A and B . Which has the numerically lower solubility thermodynamic? Please reply using the label of the selected record.
## Output B
(B: 225 µM, A: 405 µM)

====

# System: MDR1 (P-gp)
# measurement_protocol: Apparent permeability across MDCK cells transfected with MDR1
# Type: ADME, cell-based, Canis lupus familiaris
# applied_conditions: dog
metric_name: Papp (×10⁻⁶ cm/s)
Respond numerically; units are ×10⁻⁶ cm/s and should not be typed.

# chemical_structure, Papp (×10⁻⁶ cm/s)
data = [
    ("O=C(NCc1ccccc1)[C@@H](c1ccccc1)N1CCN(C(=O)c2cc(F)ccc2Cl)CC1", 36),
]

Read the next record carefully.
Form: compound = O=C(NCc1ccccc1)[C@@H](c1ccccc1)N1CCN(Cc2ccccc2)CC1 ; Papp = 24

====

# measurement_protocol: Thermodynamic solubility of the compound in PBS at pH 7.4
# Type: physicochemical
# applied_conditions: read-out: Therm_solubility
metric_name: solubility thermodynamic (µM)

# chemical_structure, result_units, solubility thermodynamic
measured = [
    ("N#Cc1cc(OC(F)(F)F)cc(C(=O)N2CCN([C@@H](C(=O)NCc3ccccc3)c3ccccc3)CC2)c1", "µM", 44),
]

a. O=C(NCc1ccccc1)[C@@H](c1ccccc1)N1CCN(C(=O)c2cc(F)cc(F)c2)CC1
b. O=C(NCC(F)(F)C1CC1)[C@@H](c1ccccc1)N1CCN(C(=O)c2cc(F)cc(F)c2)CC1
c. O=C(Nc1ccc(OCC(F)(F)F)nc1)[C@@H](c1ccccc1)N1CCN(C(=O)c2cc(F)cnc2Cl)CC1
d. N#Cc1ccc([C@H](C(=O)NCc2ccccc2)N2CCN(C(=O)c3cc(F)cc(F)c3)CC2)cc1
e. O=C(Nc1ccc(OCC(F)(F)F)nc1)[C@@H](c1ccccc1)N1CCN(C(=O)c2cc(F)cc(F)c2)CC1
## Input hey, can you rank those molecules up there by solubility thermodynamic? biggest number first please Give the order by naming the labels one after another as requested.
## Output b, a, d, c, e
(b: 346 µM, a: 137 µM, d: 74 µM, c: 49 µM, e: 19 µM)

1. N#Cc1cc(F)cc(C(=O)N2CCN([C@@H](C(=O)NCc3ccccc3)c3ccccc3)CC2)c1
2. N#Cc1ccc([C@H](C(=O)NCC(F)(F)C2CC2)N2CCN(C(=O)c3cc(F)ccc3Cl)CC2)cc1
3. O=C(NCc1ccccc1)[C@@H](c1ccccc1)N1CCN(C(=O)c2cc(F)ccc2Cl)CC1
4. O=C(NCC1CC1)[C@@H](c1ccccc1)N1CCN(C(=O)c2cc(F)cc(F)c2)CC1
5. COc1cc([C@H](C(=O)NCc2ccccc2)N2CCN(C(=O)c3cc(F)cc(F)c3)CC2)ccc1C#N
## Input hey, can you rank those molecules up there by solubility thermodynamic? biggest number first please Give the order by naming the labels one after another as requested.
## Output 4, 1, 2, 3, 5
(4: 472 µM, 1: 248 µM, 2: 154 µM, 3: 96 µM, 5: 30 µM)

A. O=C(NCc1ccccc1)[C@@H](c1ccccc1)N1CCN(C(=O)c2cc(F)cnc2Cl)CC1
B. N#Cc1ccc([C@H](C(=O)Nc2ccc(OCC(F)(F)F)nc2)N2CCN(C(=O)c3cc(F)cc(F)c3)CC2)cc1
## Input Between A and B , whose measured solubility thermodynamic reads higher? Please reply using the label of the selected record.
## Output A
(A: 454 µM, B: 15 µM)
